- System: BT-549 breast
- Assay: NCI-60 one-dose screen, 48 h (100 = growth as untreated, 0 = no growth, -100 = all killed)
- Details: 10 µM unless noted
About 83,000 compounds went through this panel and 20% of them were active in at least one assay; those are over-represented in the sample as a whole.
Provide the recorded growth for the entries that follow.
Enter your answer as a number in %; do not include the unit.

For the record O=C/C=C/c1ccco1 , what value of growth is listed for BT-549 breast?
104

For the record O=C(O)c1ccc(=O)[nH]c1 , what value of growth is listed for BT-549 breast?
89.7

For the record O=C1NC(=O)C(=C/C=C/c2ccccc2)C(=O)N1 , what value of growth is listed for BT-549 breast?
36.6

For the record Oc1ccccc1C=NCCN=Cc1ccccc1O.[Fe] , what value of growth is listed for BT-549 breast?
110

For the record COc1ccc(N(CC(=O)NCCC[Te]c2ccccc2)C(=O)c2ccccc2)cc1 , what value of growth is listed for BT-549 breast?
-36.2

For the record O=C=Nc1ccc(Br)cc1 , what value of growth is listed for BT-549 breast?
98.3

For the record CC(=O)C(N)Cc1ccccc1 (configuration not stated) , what value of growth is listed for BT-549 breast?
96

###

Provide the recorded growth for the entries that follow.
- Tested on: IGROV1 ovarian
- Assay: NCI-60 one-dose screen, 48 h (100 = growth as untreated, 0 = no growth, -100 = all killed)
- Details: 10 µM unless noted
This is part of a sample that, as a whole, favours compounds with a hit. Of some 83,000 tested, about 20% had one in any assay.
Enter your answer as a number in %; do not include the unit.

Sample CC1=CC(=O)CCC12CCOC2=O (stereo unspecified) — what was its growth?
108

Sample CN1CCC2(CC1)C(C#N)C(=O)NC(=O)C2C#N (stereo unspecified) — what was its growth?
123

Sample Oc1ccccc1C=NCCN=Cc1ccccc1O.[Fe] — what was its growth?
71.2

Sample C[C@]12CCc3sc(Nc4ccc(F)cc4)nc3C1=CC[C@@H]1[C@@H]2CC[C@]2(C)C(=O)CC[C@@H]12 — what was its growth?
75.2

Sample C/C(=N/OC(=O)N(C)C)c1ccc(Cl)c(Cl)c1 — what was its growth?
105

Sample O=C1C=C(N2CC2)c2ccccc2C1=O — what was its growth?
70.7

Sample CC1=C(C)C(=O)O[C@@H]([C@](C)(O)[C@]2(O)CC[C@@]3(O)[C@@H]4C[C@H]5O[C@]56CC=CC(=O)[C@]6(C)[C@H]4CC[C@]23C)C1 — what was its growth?
-36.7

Sample CCCCS(=O)(=O)Cl — what was its growth?
116

Sample N#CC(NC(=O)CCl)=C(Cl)Cl — what was its growth?
-38.6

Sample O=c1c2ccccc2nc(-c2ccccc2Cl)n1-c1nnc(C(F)(F)F)s1 — what was its growth?
37.6

Sample N#CC(N)c1ccccc1 (stereo unspecified) — what was its growth?
115

###

- Tested on: HL-60(TB) leukemia
- Assay: NCI-60 one-dose screen, 48 h (100 = growth as untreated, 0 = no growth, -100 = all killed)
- Details: 10 µM unless noted
Compounds without any hit were thinned out: in the full panel of roughly 83,000, 20% have a hit.
Decision: growth beneath 80% gives y; growth meeting or exceeding 80% gives n.

Given CC(=O)Cc1ccc2c(c1)OCO2 , is recorded growth strictly lower than 80%?
y

Given CCOC(=O)C1C(C=C(C)C)C1(C)C (stereo unspecified) , is recorded growth strictly lower than 80%?
n

Given Cc1cc(N(CCCl)CCCl)ccc1C=Nc1ccc(-c2csc(-c3ccccc3)n2)cc1 , is recorded growth strictly lower than 80%?
y

Given Cc1ccc(NC(=O)c2cc3ccccc3cc2O)c(C)c1 , is recorded growth strictly lower than 80%?
y

Given CN1CCc2cc3c(cc2C1O)OCO3 (stereo unspecified) , is recorded growth strictly lower than 80%?
n

###

Provide the recorded growth for the entries that follow.
- Tested on: SNB-19 CNS
- Assay: NCI-60 one-dose screen, 48 h (100 = growth as untreated, 0 = no growth, -100 = all killed)
- Details: 10 µM unless noted
This is part of a sample that, as a whole, favours compounds with a hit. Of some 83,000 tested, about 20% had one in any assay.
Enter your answer as a number in %; do not include the unit.

Sample CCCCOCCOP(=O)(OCCOCCCC)OCCOCCCC — what was its growth?
98

Sample CC1=C2[C@H]3OC(=O)[C@@H](C)[C@@H]3CC[C@@]2(C)C=CC1=O — what was its growth?
110

Sample NC(N)=NC(N)=Nc1ccc(Cl)cc1 — what was its growth?
105

Sample O=C1NC(=O)C(=C/C=C/c2ccccc2)C(=O)N1 — what was its growth?
53.8

Sample Cc1ccc(P(=O)(O)O)cc1 — what was its growth?
97.9

Sample C=CCOC(=O)C(Br)CC (configuration not stated) — what was its growth?
109

Sample C/C(=C(\c1ccc(OCCN2CCOCC2)cc1)c1ccc(OC(=O)Cc2ccccc2)cc1)c1ccc(Cl)cc1 — what was its growth?
96.3

Sample O=C(O)c1ccccc1N(CCO)CCCl — what was its growth?
98.8

Sample [N-]=[N+]=CC(=O)CCC(=O)C=[N+]=[N-] — what was its growth?
99.6

Sample CN1CCC2(CC1)C(C#N)C(=O)NC(=O)C2C#N (configuration not stated) — what was its growth?
99

Sample Cc1nnc([S-])o1.[Au+].c1ccc([PH+](c2ccccc2)c2ccccc2)cc1 — what was its growth?
29.2

Sample CCN1C(=O)NC(=O)C(C)(N2C(=O)c3c(F)c(F)c(F)c(F)c3C2=O)C1=O (configuration not stated) — what was its growth?
49.3

Sample C[C@]12CCc3sc(Nc4ccc(F)cc4)nc3C1=CC[C@@H]1[C@@H]2CC[C@]2(C)C(=O)CC[C@@H]12 — what was its growth?
67.4

Sample COc1cc(C2C3=C(CCCC3=O)N(CCO)c3cc4c(cc32)CCC4)cc(OC)c1OC (configuration not stated) — what was its growth?
87.3

Sample COc1c(O)cc2c(c1OC)-c1ccc(SC)c(=O)cc1C(NC(C)=O)CC2 (configuration not stated) — what was its growth?
18.5

Sample CC[C@H](C)[C@H](NC(=O)c1cnccn1)C(=O)N(C)[C@H](C[C@@H](OC(C)=O)c1nc(C(=O)N[C@@H](Cc2ccccc2)C[C@H](C)C(=O)OC)cs1)C(C)C — what was its growth?
31.9

Sample Cc1c(C)c(N)c(C)c(C)c1N — what was its growth?
82.1

###

Provide the recorded growth for the entries that follow.
- Test system: M14 melanoma
- Assay: NCI-60 one-dose screen, 48 h (100 = growth as untreated, 0 = no growth, -100 = all killed)
- Details: 10 µM unless noted
About 83,000 compounds went through this panel and 20% of them were active in at least one assay; those are over-represented in the sample as a whole.
Enter your answer as a number in %; do not include the unit.

Sample CCOP(=O)(OCC)C(=O)N(CC)CC — what was its growth?
101

Sample CC1(C)N(Nc2ccccc2)C(=O)C2CCCN21 (centres undefined) — what was its growth?
10

Sample CC[C@H](C)[C@H]1O[C@]2(C=C[C@@H]1C)C[C@@H]1C[C@@H](C/C=C(\C)[C@@H](O[C@H]3C[C@H](OC)[C@@H](O[C@H]4C[C@H](OC)[C@@H](NC)[C@H](C)O4)[C@H](C)O3)[C@@H](C)/C=C/C=C3\CO[C@@H]4[C@H](O)C(C)=C[C@@H](C(=O)O1)[C@]34O)O2 — what was its growth?
-68.6

Sample Nc1cccnc1 — what was its growth?
113

###

Provide the recorded growth for the entries that follow.
- System: SK-MEL-28 melanoma
- Assay: NCI-60 one-dose screen, 48 h (100 = growth as untreated, 0 = no growth, -100 = all killed)
- Details: 10 µM unless noted
About 83,000 compounds went through this panel and 20% of them were active in at least one assay; those are over-represented in the sample as a whole.
Enter your answer as a number in %; do not include the unit.

Sample C=CC1CN2CCC1CC2C(O)c1ccnc2ccccc12 (stereo not given) — what was its growth?
133

Sample O=S(OO)c1cc(Cl)c(O)c(Cl)c1 (stereo not given) — what was its growth?
98.9

Sample COC(=O)C1=CO[C@@H](C)[C@@H]2CN3CCc4c([nH]c5cc(OC)ccc45)[C@@H]3C[C@H]12 — what was its growth?
114

Sample COC(=O)[C@@H](C)C[C@H](Cc1ccccc1)NC(=O)c1cccc([C@@H](C[C@H](C(C)C)N(C)C(=O)[C@@H](NC(=O)[C@H]2CCCCN2C)C2CC2)OC(C)=O)n1 — what was its growth?
62

Sample C[C@]12CCc3sc(Nc4ccc(F)cc4)nc3C1=CC[C@@H]1[C@@H]2CC[C@]2(C)C(=O)CC[C@@H]12 — what was its growth?
46.5

Measured values drawn from PubChem BioAssay (NCI) for this set.
